Where do the numbers come from? From patent US20260297129A1.

A collection of compounds and their measured remaining at 1 h, 1 µM
test: Protease stability in simulated intestinal fluids (FaSSIF) (Table 7); format: in vitro ADME; settings: fassif with pancreatin, 60 min, 37° C., read-out: Remaining percentage of peptide compound, FaSSIF 60 (min)
Bridge positions count the residues as written; N and C are the ends. Square brackets hold non-standard residues; d marks the D form. Peptide text beside a SMILES is read from it. * marks the point of attachment. Trp(7-Me) = Cc1cccc2c(C[C@H](N)C(=O)O)c[nH]c12; 2Nal = N[C@@H](Cc1ccc2ccccc2c1)C(=O)O; d2Nal = N[C@H](Cc1ccc2ccccc2c1)C(=O)O; 3Pal = N[C@@H](Cc1cccnc1)C(=O)O; 12Ado = NCCCCCCCCCCCC(=O)O; Aun = NCCCCCCCCCCC(=O)O; Thp = NC1(C(=O)O)CCOCC1; Me2NCH2CH2 = CN(C)CC*; Aib = CC(C)(N)C(=O)O; Sar = CNCC(=O)O
The answer is to be given in %; state only the numeric part.

INSERT INTO measurements (compound, recorded_metric, reported_measurement) VALUES
  ('Cc1cccc2c(C[C@@H]3NC(=O)CCCCCCCCCCNC(=O)CC[C@@H](C(=O)N[C@@H](CC(N)=O)C(=O)N[C@@H](Cc4cccnc4)C(=O)N(C)CC(N)=O)NC(=O)C(C)(C)NC(=O)[C@@H](Cc4ccc5ccccc5c4)NC(=O)[C@H](Cc4ccc(OCCN(C)C)cc4)NC(=O)C4(CCOCC4)NC(=O)[C@H](CCC(N)=O)NC3=O)c[nH]c12 [compound 4] ([Aun][Trp(7-Me)]Q[Thp]Y(Me2NCH2CH2)[d2Nal][Aib]EN[3Pal][Sar]-NH2; lactam N-8)', 'remaining at 1 h, 1 µM', 90);

// below: remaining at 1 h, 1 µM requested for another compound
Query: Retrieve remaining at 1 h, 1 µM measured for Cc1cccc2c(C[C@@H]3NC(=O)CCCCCCCCCCCNC(=O)CC[C@@H](C(=O)N[C@@H](CC(N)=O)C(=O)N[C@@H](Cc4cccnc4)C(=O)N(C)CC(N)=O)NC(=O)C(C)(C)NC(=O)[C@H](Cc4ccc5ccccc5c4)NC(=O)[C@H](Cc4ccc(OCCN(C)C)cc4)NC(=O)C4(CCOCC4)NC(=O)[C@H](CCC(N)=O)NC3=O)c[nH]c12 [compound 2] ([12Ado][Trp(7-Me)]Q[Thp]Y(Me2NCH2CH2)[2Nal][Aib]EN[3Pal][Sar]-NH2; lactam N-8) and print it.
Reply: 100

----------
assay: Protease stability in simulated gastric fluids (FaSSGF) (Table 7); type: in vitro ADME; conditions: fassgf with pepsin, 60 min, 37° C., read-out: Remaining percentage of peptide compound, FaSSGF 60 (min)
Numbered stars: 1 amine (or outer) side, 2 acyl side, 3 side chain; on linkers, the order of the positions; unused ones are H or OH. Bridge positions count the residues as written; N and C are the ends. Square brackets hold non-standard residues; d marks the D form. Peptide text beside a SMILES is read from it. * marks the point of attachment. Lys(Me,(CH2)4NMe(CH2)4CO) = CN(CCCCC(=O)[*:3])CCCCN(C)CCCC[C@H](N[*:1])C(=O)[*:2]; Trp(7-Me) = Cc1cccc2c(C[C@H](N)C(=O)O)c[nH]c12; Trp(1-Me) = Cn1cc(C[C@H](N)C(=O)O)c2ccccc21; αMeLys(Me2) = CN(C)CCCC[C@](C)(N)C(=O)O; 2Nal = N[C@@H](Cc1ccc2ccccc2c1)C(=O)O; 3Pal = N[C@@H](Cc1cccnc1)C(=O)O; Aun = NCCCCCCCCCCC(=O)O; Thp = NC1(C(=O)O)CCOCC1; Me2NCH2CH2 = CN(C)CC*; Aib = CC(C)(N)C(=O)O; Sar = CNCC(=O)O
RECORDED_METRIC: remaining at 1 h, 1 µM (%)
The answer is to be given in %; state only the numeric part.

INSERT INTO assay_data (compound, reported_measurement) VALUES
  ('Cc1cccc2c(C[C@@H]3NC(=O)CCCCN(C)CCCCN(C)CCCC[C@@H](C(=O)N[C@@H](CC(N)=O)C(=O)N[C@@H](Cc4cccnc4)C(=O)N(C)CC(N)=O)NC(=O)C(C)(C)NC(=O)[C@H](Cc4ccc5ccccc5c4)NC(=O)[C@H](Cc4ccc(OCCN(C)C)cc4)NC(=O)C4(CCOCC4)NC(=O)[C@H](CCC(N)=O)NC3=O)c[nH]c12 [compound 46] ([Trp(7-Me)]Q[Thp]Y(Me2NCH2CH2)[2Nal][Aib][Lys(Me,(CH2)4NMe(CH2)4CO)]N[3Pal][Sar]-NH2; lactam N-7)', 100),
  ('CN(C)CCOc1ccc(C[C@@H]2NC(=O)C3(CCOCC3)NC(=O)[C@H](CCC(N)=O)NC(=O)[C@H](Cc3cn(C)c4ccccc34)NC(=O)CCCCN(C)CCCCN(C)CCCC[C@@H](C(=O)N[C@@H](CO)C(=O)N[C@@H](Cc3cccnc3)C(=O)N(C)CC(N)=O)NC(=O)C(C)(C)NC(=O)[C@H](Cc3ccc4ccccc4c3)NC2=O)cc1 [compound 40] ([Trp(1-Me)]Q[Thp]Y(Me2NCH2CH2)[2Nal][Aib][Lys(Me,(CH2)4NMe(CH2)4CO)]S[3Pal][Sar]-NH2; lactam N-7)', 100),
  ('CC(=O)NCCCC[C@@H]1NC(=O)[C@H](Cc2c[nH]c3c(C)cccc23)NC(=O)CCCCN(C)CCCCN(C)CCCC[C@@H](C(=O)N[C@@H](CC(N)=O)C(=O)N[C@@H](Cc2cccnc2)C(=O)N(C)CC(N)=O)NC(=O)[C@](C)(CCCCN(C)C)NC(=O)[C@H](Cc2ccc3ccccc3c2)NC(=O)[C@H](Cc2ccc(OCCN(C)C)cc2)NC(=O)C2(CCOCC2)NC1=O [compound 47] ([Trp(7-Me)]K(Ac)[Thp]Y(Me2NCH2CH2)[2Nal][αMeLys(Me2)][Lys(Me,(CH2)4NMe(CH2)4CO)]N[3Pal][Sar]-NH2; lactam N-7)', 98);

Query: Retrieve remaining at 1 h, 1 µM measured for CC(=O)NCCCC[C@@H]1NC(=O)[C@H](Cc2c[nH]c3c(C)cccc23)NC(=O)CCCCN(C)CCCCN(C)CCCC[C@@H](C(=O)NCC(=O)N[C@@H](Cc2cccnc2)C(=O)N(C)CC(N)=O)NC(=O)C(C)(C)NC(=O)[C@H](Cc2ccc3ccccc3c2)NC(=O)[C@H](Cc2ccc(OCCN(C)C)cc2)NC(=O)C2(CCOCC2)NC1=O [compound 29] ([Trp(7-Me)]K(Ac)[Thp]Y(Me2NCH2CH2)[2Nal][Aib][Lys(Me,(CH2)4NMe(CH2)4CO)]G[3Pal][Sar]-NH2; lactam N-7) and print it.
Reply: 99

Query: Retrieve remaining at 1 h, 1 µM measured for CC(=O)NCCCC[C@@H]1NC(=O)[C@H](Cc2c[nH]c3c(C)cccc23)NC(=O)CCCCCCCCCCNC(=O)CC[C@@H](C(=O)N[C@@H](CC(N)=O)C(=O)N[C@@H](Cc2cccnc2)C(=O)N(C)CC(N)=O)NC(=O)C2(CCOCC2)NC(=O)[C@H](Cc2ccc3ccccc3c2)NC(=O)[C@H](Cc2ccc(OCCN(C)C)cc2)NC(=O)C2(CCOCC2)NC1=O [compound 50] ([Aun][Trp(7-Me)]K(Ac)[Thp]Y(Me2NCH2CH2)[2Nal][Thp]EN[3Pal][Sar]-NH2; lactam N-8) and print it.
Reply: 84

----------
experiment: Solubility of peptide compounds in buffer formulations (Table 5); type: physicochemical; settings: Buffer pH 1.1 (head; method: 50 mM HCl pH 1.2), 2 h agitation, target 1 mg/ml; read-out: Solubility, Buffer pH 1.1
Numbered stars: 1 amine (or outer) side, 2 acyl side, 3 side chain; on linkers, the order of the positions; unused ones are H or OH. Bridge positions count the residues as written; N and C are the ends. Square brackets hold non-standard residues; d marks the D form. Peptide text beside a SMILES is read from it. * marks the point of attachment. Lys(Me,(CH2)4NMe(CH2)4CO) = CN(CCCCC(=O)[*:3])CCCCN(C)CCCC[C@H](N[*:1])C(=O)[*:2]; Trp(7-Me) = Cc1cccc2c(C[C@H](N)C(=O)O)c[nH]c12; NH(2-(3-pyridyl)ethyl) = c1cncc(CCN*)c1; 2Nal = N[C@@H](Cc1ccc2ccccc2c1)C(=O)O; 3Pal = N[C@@H](Cc1cccnc1)C(=O)O; AEEEA = NCCOCCOCCOCC(=O)O; Thp = NC1(C(=O)O)CCOCC1; Me2NCH2CH2 = CN(C)CC*; Aib = CC(C)(N)C(=O)O; Sar = CNCC(=O)O
RECORDED_METRIC: solubility at 2 h

INSERT INTO results (molecule, reported_measurement) VALUES
  ('Cc1cccc2c(C[C@@H]3NC(=O)CCCCN(C)CCCCN(C)CCCC[C@@H](C(=O)NCC(=O)NCCc4cccnc4)NC(=O)C(C)(C)NC(=O)[C@H](Cc4ccc5ccccc5c4)NC(=O)[C@H](Cc4ccc(OCCN(C)C)cc4)NC(=O)C4(CCOCC4)NC(=O)[C@H](CCC(N)=O)NC3=O)c[nH]c12 [compound 24] ([Trp(7-Me)]Q[Thp]Y(Me2NCH2CH2)[2Nal][Aib][Lys(Me,(CH2)4NMe(CH2)4CO)]G-{NH(2-(3-pyridyl)ethyl)}; lactam N-7)', '≥ 990 µg/mL');

// below: solubility at 2 h requested for another molecule
Query: Retrieve solubility at 2 h measured for Cc1cccc2c(C[C@@H]3NC(=O)COCCOCCOCCNC(=O)CC[C@@H](C(=O)N[C@@H](CC(N)=O)C(=O)N[C@@H](Cc4cccnc4)C(=O)N(C)CC(N)=O)NC(=O)C(C)(C)NC(=O)[C@H](Cc4ccc5ccccc5c4)NC(=O)[C@H](Cc4ccc(OCCN(C)C)cc4)NC(=O)C4(CCOCC4)NC(=O)[C@H](CCC(N)=O)NC3=O)c[nH]c12 [compound 14] ([AEEEA][Trp(7-Me)]Q[Thp]Y(Me2NCH2CH2)[2Nal][Aib]EN[3Pal][Sar]-NH2; lactam N-8) and print it.
Reply: ≥ 1200 µg/mL
